The measured values listed here are drawn from patent US12258328B2.

# target_of_assay: EGFR del19/C797S (Homo sapiens, UniProt P00533, C797S/DEL746-750)
# Sequence (P00533 with tags, fused parts or gaps DEL746-750/C797S): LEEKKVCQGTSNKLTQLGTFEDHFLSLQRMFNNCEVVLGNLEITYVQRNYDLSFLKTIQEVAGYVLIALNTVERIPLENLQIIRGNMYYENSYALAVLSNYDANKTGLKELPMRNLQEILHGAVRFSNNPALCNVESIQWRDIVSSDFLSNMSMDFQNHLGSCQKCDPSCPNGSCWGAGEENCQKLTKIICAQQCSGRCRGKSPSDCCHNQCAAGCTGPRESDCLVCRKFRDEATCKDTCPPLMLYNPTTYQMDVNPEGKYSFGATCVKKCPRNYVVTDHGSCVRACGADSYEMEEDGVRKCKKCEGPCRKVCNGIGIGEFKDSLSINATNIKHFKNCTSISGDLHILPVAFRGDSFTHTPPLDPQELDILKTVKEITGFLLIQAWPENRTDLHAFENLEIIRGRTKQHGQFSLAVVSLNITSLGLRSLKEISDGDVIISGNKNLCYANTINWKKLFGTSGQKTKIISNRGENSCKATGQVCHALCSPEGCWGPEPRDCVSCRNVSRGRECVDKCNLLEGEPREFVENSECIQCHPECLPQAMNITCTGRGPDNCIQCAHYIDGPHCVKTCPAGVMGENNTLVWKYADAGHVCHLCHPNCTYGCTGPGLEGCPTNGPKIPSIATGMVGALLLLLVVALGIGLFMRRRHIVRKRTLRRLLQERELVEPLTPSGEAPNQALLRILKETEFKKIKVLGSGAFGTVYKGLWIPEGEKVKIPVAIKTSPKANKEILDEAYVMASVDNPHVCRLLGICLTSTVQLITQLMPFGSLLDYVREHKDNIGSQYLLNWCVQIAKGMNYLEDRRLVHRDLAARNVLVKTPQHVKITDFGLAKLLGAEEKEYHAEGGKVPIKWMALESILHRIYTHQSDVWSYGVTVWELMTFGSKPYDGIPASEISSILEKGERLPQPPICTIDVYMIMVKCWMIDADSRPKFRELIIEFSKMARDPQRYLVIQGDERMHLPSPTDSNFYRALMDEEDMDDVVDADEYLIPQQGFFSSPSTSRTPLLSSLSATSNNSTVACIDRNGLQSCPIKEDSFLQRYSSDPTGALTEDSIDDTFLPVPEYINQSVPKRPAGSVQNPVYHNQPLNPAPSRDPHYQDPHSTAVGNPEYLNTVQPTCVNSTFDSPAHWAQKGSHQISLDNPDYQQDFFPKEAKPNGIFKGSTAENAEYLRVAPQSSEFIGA
# assay_overview: Biochemical EGFR kinase assay (Lance Ultra TR-FRET), double mutant del19/C797S
# assay_setup: IC50 del19/C797S, 100 μM ATP
pIC50: −log10 of the molar value.
measurement_type: pIC50

[
  {
    "molecule": "C[C@]1(O)CC[C@@H](Nc2cc(Nc3ccnc(-c4cnn(S(=O)(=O)C5CC5)c4)n3)ncc2-c2ccc(C(=O)N3CCOCC3)cn2)CC1",
    "pIC50": 9.70
  },
  {
    "molecule": "CC(O)(c1ccc(-c2cnc(Nc3ccnc(-c4cnn(S(=O)(=O)C5CC5)c4)n3)cc2N[C@H]2CCC[C@H](CO)C2)nc1)C(F)(F)F (stereo partly drawn)",
    "pIC50": 8.02
  },
  {
    "molecule": "C[C@]1(O)CC[C@@H](Nc2cc(Nc3ccnc(-c4cnn(S(=O)(=O)C5CC5)c4)n3)ncc2-c2cc(NCCN3CC(F)C3)ccn2)CC1",
    "pIC50": 9.22
  },
  {
    "molecule": "CS(=O)(=O)c1ccc(-c2cnc(Nc3ccnc(-c4cnn(S(=O)(=O)C5CC5)c4)n3)cc2N[C@H]2CC[C@@H](NCCF)CC2)nc1",
    "pIC50": 9.22
  },
  {
    "molecule": "CN(C)C[C@H]1CC[C@@H](Nc2cc(Nc3ccnc(-c4cnn(S(=O)(=O)C5CC5)c4)n3)ncc2-c2cc(NC3CC(F)(F)C3)ccn2)CC1",
    "pIC50": 8.89
  }
]

(a) CC(C)(O)[C@H]1CC[C@@H](Nc2cc(Nc3ccnc(-c4cnn(S(=O)(=O)C5CC5)c4)n3)ncc2-c2ccc(C(=O)N3CCOCC3)cn2)CC1
(b) C[C@]1(O)CC[C@@H](Nc2cc(Nc3ccnc(-c4cnn(S(=O)(=O)C5CC5)c4)n3)ncc2-c2cc(NC3CC(F)(F)C3)ccn2)CC1
In: Field: entry with larger pIC50 (options a / b ). Provide the label of your selected option as the answer.
Out: a
(a: 9.22, b: 8.57)

====

# target_of_assay: EGFR wildtype (Homo sapiens)
# Sequence (P00533 25-1210): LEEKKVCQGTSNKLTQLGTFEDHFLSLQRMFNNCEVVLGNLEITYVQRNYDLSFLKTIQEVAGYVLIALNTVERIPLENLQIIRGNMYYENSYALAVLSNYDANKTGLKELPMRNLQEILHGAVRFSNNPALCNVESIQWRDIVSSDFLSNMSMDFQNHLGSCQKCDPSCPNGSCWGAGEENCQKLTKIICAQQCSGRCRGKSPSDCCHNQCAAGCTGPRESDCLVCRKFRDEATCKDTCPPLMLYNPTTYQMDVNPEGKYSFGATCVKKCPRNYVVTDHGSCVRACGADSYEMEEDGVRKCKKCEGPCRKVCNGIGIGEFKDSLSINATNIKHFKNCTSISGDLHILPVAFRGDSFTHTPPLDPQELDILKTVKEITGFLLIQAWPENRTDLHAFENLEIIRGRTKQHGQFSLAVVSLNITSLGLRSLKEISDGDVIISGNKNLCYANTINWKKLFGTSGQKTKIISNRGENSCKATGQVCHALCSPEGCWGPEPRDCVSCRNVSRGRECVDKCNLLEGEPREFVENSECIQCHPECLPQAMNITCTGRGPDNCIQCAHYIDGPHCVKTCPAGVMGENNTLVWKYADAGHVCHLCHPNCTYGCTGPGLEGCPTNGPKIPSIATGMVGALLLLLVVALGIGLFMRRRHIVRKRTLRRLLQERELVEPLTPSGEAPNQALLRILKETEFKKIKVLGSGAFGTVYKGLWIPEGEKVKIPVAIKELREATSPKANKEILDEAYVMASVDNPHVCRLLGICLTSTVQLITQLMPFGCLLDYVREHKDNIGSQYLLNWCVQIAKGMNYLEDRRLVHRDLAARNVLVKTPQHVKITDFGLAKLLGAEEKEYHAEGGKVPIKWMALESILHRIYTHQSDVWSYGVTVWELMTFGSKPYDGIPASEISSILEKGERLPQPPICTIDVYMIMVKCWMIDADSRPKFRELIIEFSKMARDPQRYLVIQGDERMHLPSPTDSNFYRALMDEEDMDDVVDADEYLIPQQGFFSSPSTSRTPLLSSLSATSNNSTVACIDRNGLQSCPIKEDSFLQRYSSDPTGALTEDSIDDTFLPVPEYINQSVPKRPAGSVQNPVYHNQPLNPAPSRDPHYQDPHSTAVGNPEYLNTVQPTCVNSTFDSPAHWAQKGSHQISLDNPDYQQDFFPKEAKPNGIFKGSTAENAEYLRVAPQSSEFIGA
# assay_overview: Biochemical EGFR kinase assay (Lance Ultra TR-FRET), wildtype
# assay_setup: Km ATP; read-out: IC50 WT (nM) Km ATP
measurement_type: IC50 (nM)

Sample records with IC50:
[
  {
    "compound": "CC(C)(O)[C@H]1CC[C@@H](Nc2cc(Nc3ccnc(-c4cnn(S(=O)(=O)C5CC5)c4)n3)ncc2-c2cc(CN3CCC(F)(F)CC3)ccn2)CC1 [Example 114]",
    "numeric_value": 46.8
  },
  {
    "compound": "CN(C)Cc1ccnc(-c2cnc(Nc3ccnc(-c4cnn(S(=O)(=O)C5CC5)c4)n3)cc2N[C@H]2CC[C@@](C)(O)CC2)c1 [Example 64]",
    "numeric_value": 2.4
  },
  {
    "compound": "C[C@]1(O)CC[C@@H](Nc2cc(Nc3ccnc(-c4cnn(S(=O)(=O)C5CC5)c4)n3)ncc2-c2cnc(OC3COC3)cn2)CC1 [Example 150]",
    "numeric_value": 6.2
  },
  {
    "compound": "CC(C)Nc1cc(Nc2ccnc(-c3cnn(S(=O)(=O)C4CC4)c3)n2)ncc1-c1cnc(OCCN(C)C)cn1 [Example 122]",
    "numeric_value": 7.4
  }
]

(1) CC(C)(O)c1cnc(-c2cnc(Nc3ccnc(-c4cnn(S(=O)(=O)C5CC5)c4)n3)cc2N[C@H]2CC[C@@H](C(C)(C)O)CC2)cn1 [Example 120]
(2) C[C@]1(O)CC[C@@H](Nc2cc(Nc3ccnc(-c4cnn(S(=O)(=O)C5CC5)c4)n3)ncc2-c2ccc(N3CCC(F)(F)CC3)cn2)CC1 [Example 47]
In: Please choose the item with the lower IC50 value from this pair: 1 and 2 Answer = label.
Out: 1
(1: 4.3 nM, 2: 7.1 nM)
